PROTOCOL DESCRIPTION: Pharmacokinetics of capsules in male SD rats
ASSAY CONTEXT: male, SD, rat, plasma, po, 2 mg/kg, MRTInf_obs, individual rat, capsule, male SD rat
EXPERIMENTAL ENDPOINT: MRT inf (h)
Write down the numeric answer in h and omit the unit.

Entry under review: "Nc1ncn([C@H]2C[C@H](O)[C@@H](CO)S2)c(=O)n1" . Reported MRT inf?
5.06

====

PROTOCOL DESCRIPTION: Thermodynamic solubility, shake-flask method
Format: physicochemical
ASSAY CONTEXT: organic solvent or mixture, thermodynamic from solid; 1-propanol; RT, 24 hours
EXPERIMENTAL ENDPOINT: solubility at 24 h (µg/mL)
Write down the numeric answer in µg/mL and omit the unit.

Entry under review: "Nc1ncn([C@H]2C[C@H](O)[C@@H](CO)S2)c(=O)n1" . Reported solubility at 24 h?
400

====

PROTOCOL DESCRIPTION: Thermodynamic solubility, shake-flask method
Assay type: physicochemical
ASSAY CONTEXT: organic solvent or mixture, thermodynamic from solid; 4-methyl-2-pentanone; RT, 24 hours
Protocol: The thermodynamic solubility of aza-T-dCyd was determined according to the shake-flask method. Suspensions of the crystalline aza-T-dCyd were prepared in 25 neat solvents. Small aliquots of solvent were added to the aza-T-dCyd until thin suspensions were obtained. […] After equilibration, a small aliquot of mother liquor was filtered and analyzed by HPLC. The concentration of the solute was determined against a calibration curve of the aza-T-dCyd. […]
EXPERIMENTAL ENDPOINT: solubility at 24 h (µg/mL)
Write down the numeric answer in µg/mL and omit the unit.

Entry under review: Nc1ncn([C@H]2C[C@H](O)[C@@H](CO)S2)c(=O)n1 [aza-T-dCyd, 5-Aza-4′-thio-2′-deoxycytidine] . Reported solubility at 24 h?
100

====

PROTOCOL DESCRIPTION: Pharmacokinetics of capsules in male SD rats
ASSAY CONTEXT: male, SD, rat, plasma, po, 2 mg/kg, MRTInf_obs, Mean, capsule, mean of two male SD rats
EXPERIMENTAL ENDPOINT: MRT inf (h)
Write down the numeric answer in h and omit the unit.

Entry under review: Nc1ncn([C@H]2C[C@H](O)[C@@H](CO)S2)c(=O)n1 [SM, 5-Aza-4′-thio-2′-deoxycytidine] . Reported MRT inf?
5.15

====

PROTOCOL DESCRIPTION: Pharmacokinetics of capsules in male SD rats
ASSAY CONTEXT: male, SD, rat, plasma, oral, 2 mg/kg, Concentration (plasma), Mean, 2 h, capsule, mean of two male SD rats
EXPERIMENTAL ENDPOINT: concentration at 2 h (ng/mL)
Write down the numeric answer in ng/mL and omit the unit.

Entry under review: "Nc1ncn([C@H]2C[C@H](O)[C@@H](CO)S2)c(=O)n1" . Reported concentration at 2 h?
657

====

PROTOCOL DESCRIPTION: Pharmacokinetics of capsules in male SD rats
ASSAY CONTEXT: male, SD, rat, plasma, oral, 2 mg/kg, Concentration (plasma), individual rat, 2 h, capsule, male SD rat
EXPERIMENTAL ENDPOINT: concentration at 2 h (ng/mL)
Write down the numeric answer in ng/mL and omit the unit.

Entry under review: Nc1ncn([C@H]2C[C@H](O)[C@@H](CO)S2)c(=O)n1 [SM, 5-Aza-4′-thio-2′-deoxycytidine] . Reported concentration at 2 h?
700
